Known Population Hoechst High Intensity Objects (%) of a selection of compounds
Tested on: Fibroblast
Experimental protocol: Multiplex assay against human fibroblast
Type: toxicity, cell-based
Conditions: 24 h, 1 µM, compound concentration 1 uM, replicate 1
Measurement type: Population Hoechst High Intensity Objects (%)

compound=Cl.O=C(O)c1cc(-c2ccc(C3CCNCC3)cc2)c2ccc(-c3ccc(C(F)(F)F)cc3)cc2c1 test_result=21
compound=COc1ccc(-c2ccc3ncc4c(c3c2)n(-c2ccc(N3CCNCC3)c(C(F)(F)F)c2)c(=O)n4C)cn1.O=C(O)/C=C\C(=O)O test_result=18
compound=COc1cc(Nc2nccc(-c3cnn4nc(OC)ccc34)n2)cc(C(F)(F)F)c1 test_result=19
compound=CCCSc1nc(N[C@@H]2C[C@H]2c2ccc(F)c(F)c2)c2nnn([C@@H]3C[C@H](OCCO)[C@@H](O)[C@H]3O)c2n1 test_result=9
compound=CNC(=O)Nc1ccc2c(c1)[C@@]1(CC2)OC(=O)N(CC(=O)N(Cc2ccc(F)cc2)[C@@H](C)C(F)(F)F)C1=O test_result=14
compound=CC(C)CC(=O)Nc1[nH]nc2c1CN(C(=O)C1CCN(C)CC1)C2(C)C test_result=13
compound=CN1CCN(Cc2ccc(Nc3ncc(Cl)c(Nc4ccccc4S(=O)(=O)N(C)C)n3)cc2)CC1 test_result=11
compound="CC1=C(C(=O)Nc2cc3cn[nH]c3cc2F)C(c2ccc(C(F)(F)F)cc2)CC(=O)N1 (stereo not drawn)" test_result=18

---

Tested on: U2OS
Experimental protocol: Multiplex assay against U2OS
Assay type: toxicity, cell-based
Conditions: human, 48 h, 10 µM, compound concentration 10 uM, replicate 2
Known Population Mitochondria Different-Phenotype (%) of a selection of compounds
Measurement type: Population Mitochondria Different-Phenotype (%)

compound="O=C(c1cc2c(cc1F)OC(c1ccc(F)cc1)(c1ccc(Cl)cc1Cl)O2)N1CCOCC1 (configuration not stated)" system_tested=U2OS test_result=100
compound=COc1ccc(-c2ccc3ncc4c(c3c2)n(-c2ccc(N3CCNCC3)c(C(F)(F)F)c2)c(=O)n4C)cn1.O=C(O)/C=C\C(=O)O system_tested=U2OS test_result=72
compound="CCc1nn(CCCN2CCN(c3cccc(Cl)c3)CC2)c(=O)n1CCOc1ccccc1.Cl [NEFAZODONE HYDROCHLORIDE]" system_tested=U2OS test_result=100
compound=CC(C)(C)NC[C@H](O)COc1nsnc1N1CCOCC1 system_tested=U2OS test_result=10
compound=CN1CCN(Cc2ccc(Nc3ncc(Cl)c(Nc4ccccc4S(=O)(=O)N(C)C)n3)cc2)CC1 system_tested=U2OS test_result=84
compound=CCc1ccc(OCc2ccccc2C(=O)Nc2ccc3nc(C)cc(N)c3c2)cc1.Cl system_tested=U2OS test_result=90
compound=CC(C)c1noc(N2CCC(COc3ccc(-c4ccc(S(C)(=O)=O)cc4)nc3)CC2)n1 system_tested=U2OS test_result=13
compound=C[C@]12CC[C@@H]3c4ccc(O)cc4CC[C@H]3[C@@H]1CC[C@@H]2O system_tested=U2OS test_result=13
compound=O=c1cc(N2CCOCC2)oc2c(-c3cccc4c3sc3ccccc34)cccc12 system_tested=U2OS test_result=83
compound=Cc1c[nH]c2nccc(Oc3c(F)cc(Nc4cc(Cl)nc(N)n4)cc3F)c12 system_tested=U2OS test_result=51
compound=Cl.O=C(O)c1cc(-c2ccc(C3CCNCC3)cc2)c2ccc(-c3ccc(C(F)(F)F)cc3)cc2c1 system_tested=U2OS test_result=13
compound=COc1cc(Nc2nccc(-c3cnn4nc(OC)ccc34)n2)cc(C(F)(F)F)c1 system_tested=U2OS test_result=25
compound=CNC(=O)Nc1ccc(-c2nc(N3CC4CCC(C3)O4)c3cnn(C4CCC5(CC4)OCCO5)c3n2)cc1 system_tested=U2OS test_result=80
compound=CC(C)OC(=O)N1CCC(Oc2ncnc3c2cnn3-c2ccc(S(C)(=O)=O)cc2F)CC1 system_tested=U2OS test_result=12
compound="Cc1ccc2c(c1)c1c(n2CCc2ccc(C)nc2)CCN(C)C1 [LATREPIRDINE]" system_tested=U2OS test_result=94
compound=CCCSc1nc(N[C@@H]2C[C@H]2c2ccc(F)c(F)c2)c2nnn([C@@H]3C[C@H](OCCO)[C@@H](O)[C@H]3O)c2n1 system_tested=U2OS test_result=97
compound=CC(C)NC(=O)N1CC[C@H](NC2=Nc3cc(F)ccc3N(CC(F)F)c3ccc(Cl)cc32)C1 system_tested=U2OS test_result=61

# credit: ChEMBL document CHEMBL4689842
